Provenance of the data: patent US20070134256A1

Recorded measurements of ELISA titer of Fab binding, one per entry
target: dengue type 2 virus (DENV-2), prototype New Guinea C strain, virions (dengue type 2 virus, UniProt P14340 281-775; P14340 115-280); experiment: ELISA, virion-coated plate, Fab from ~300 µg/ml
recordedEndpoint: ELISA titer of Fab binding

>  <binder>
chimpanzee Fab 5H2 (Fab, V domains shown) VH: EVQLLESGPGLVKPSETLSLTCTVSGGSISDFYWSWLRQSPGKGLEWIGYAHSRVSAYYNPSLKSRVTISVDTSKNQLSLRLSAVTAADTALYYCARQGTGTTGVSEDPFDLWGQGTKVIVSL VL: ELQMTQSPSSLSASVGDRVTITCRASQDISIRLNWYQQKPGKAPKLLIYDASTLESGVPSRFSGSGSGTDFTLTISSLQPEDFATYYCQQFNSYPLTFGGGTKVEIKR

>  <observedMeasurement>
< 1 log10 of reciprocal dilution

$$$$
>  <binder>
chimpanzee Fab 7G4 (Fab, V domains shown) VH: EVQLLESGGGLVQPGGSLTLSCAASGFTFSSYWMHWVRQAPGKGPEWVALIKKDGSEKYYAESVKGRFTISRDNAKNSLYLQMNSLRAEDTAVYYCTRRITTLTVISDAFDIWGQGTMVTVSS VL: ELTQSPSTLSASVGDRVTITCRASQGISSWLAWYQQKPGKAPKFLIYKASSLESGVPSRFSGSGSGTEFTLTISSLQPDDFATYYCQQYGSYPLTFGPGTKVDIKR

>  <observedMeasurement>
4.01 log10 of reciprocal dilution

$$$$
>  <binder>
chimpanzee Fab 3C1 (Fab, V domains shown) VH: EVQLLESGAEVKKPGGSVKVSCKVSGGTLSSYGISWVRQAPGQGPEWMGVIIPIRGTANYAQKFQGRVTYTADESTSTVYMELSSLRSEDTAVYYCATGRRGRYPTGSFDYWGQGALVTVSS VL: ELQMTQSPSTLSASVGDRVTVTCRASEDLNKWLAWYQQKPGKAPKLLIYKASSLESGVPSRFSGSGSGTEFTLTISSLQPDDFATYYCQQYQSYPYTFGPGTKLEIKR

>  <observedMeasurement>
3.11 log10 of reciprocal dilution

$$$$
